Catalogue of pIC50 readings, one per entry.
- tgt: DPP1 in HL-60 cells (Homo sapiens, UniProt P53634)
- Sequence (P53634 25-463): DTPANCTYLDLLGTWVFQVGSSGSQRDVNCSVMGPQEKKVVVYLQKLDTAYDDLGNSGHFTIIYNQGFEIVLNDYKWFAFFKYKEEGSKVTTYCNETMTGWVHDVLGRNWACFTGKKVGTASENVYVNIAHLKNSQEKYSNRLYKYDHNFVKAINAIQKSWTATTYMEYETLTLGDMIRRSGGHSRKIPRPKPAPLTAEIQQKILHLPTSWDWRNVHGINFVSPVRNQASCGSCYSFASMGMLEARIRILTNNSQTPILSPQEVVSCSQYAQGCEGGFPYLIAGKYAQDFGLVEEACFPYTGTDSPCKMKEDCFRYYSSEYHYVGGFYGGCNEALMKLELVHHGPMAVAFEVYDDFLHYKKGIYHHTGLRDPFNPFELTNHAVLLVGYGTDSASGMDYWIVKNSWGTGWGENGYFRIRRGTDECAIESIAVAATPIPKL
- assay-comment: DPP1 Cell IC50 assay
- Type: cell-based
- Design: host or cells: HL-60 cells
- experimental-parameters: 60 min pre-incubation, H-Gly-Phe-AFC substrate, average of n runs, read-out: Avg. IC50 (DPP1 Cell IC50 value ranges)
- Protocol: Example 99. DPP1 Cell IC50 assay HL-60 cells (ATCC; Manassas, VA) were maintained in RPMI-1640 supplemented with 20% heat-inactivated FBS and 1× Antibiotic Antimycotic (Cytiva; Marlborough, MA). Media was changed every three to four days and cells were not allowed to exceed 1×10^6 cells per mL. Prior to assay, cells were collected by centrifugation at 500 rcf for 3 minutes, resuspended in PBS and counted. […]
pIC50: −log10 of the molar value.

Examples with answers:
- compound: "N#Cc1ccc2c(c1)CSc1cc(C[C@@H](C#N)NC(=O)[C@@H]3CNCCCCO3)c(F)cc1-2 [Compound B17]"
  pIC50: "< 8.60"
- compound: "N#C[C@H](Cc1ccc(-c2ccn3ccnc3c2)cc1)NC(=O)[C@@H]1CNCCCO1 [Compound A142]"
  pIC50: "< 8.60"
- compound: "C[C@@H]1NC[C@@H](C(=O)N[C@H](C#N)Cc2cnc(-c3ccc4c(F)nn(C)c4c3)s2)OC[C@@H]1O [Compound A171]"
  pIC50: "< 8.60"
- compound: "CO[C@@H]1CCNC[C@@H](C(=O)N[C@H](C#N)Cc2ccc(-c3ccc4cnn(C)c4c3)cc2)OC1 [Compound H5]"
  pIC50: "8.60 to 9.00"
- compound: "CO[C@H]1CCO[C@H](C(=O)N[C@H](C#N)Cc2ccc(-c3cc4c(C)nc(C)cn4c3)cc2)CNC1 [Compound A42]"
  pIC50: "8.60 to 9.00"
- compound: "N#C[C@H](Cc1ccc(-c2ccc3c(c2)[C@]2(CCCN(c4ccsc4)C2)SC3)cc1)NC(=O)[C@@H]1CNCCCO1 [Compound I13]"
  pIC50: "< 8.60"
- compound: "N#C[C@H](Cc1ccc(-c2ccc(-c3nnc(N)s3)o2)cc1)NC(=O)[C@@H]1CNCCCO1 [Compound D1]"
  pIC50: "< 8.60"
- compound: "Cn1ccc2ncc(-c3ccc(C[C@@H](C#N)NC(=O)[C@@H]4CNCCCO4)cc3)cc21 [Compound A143]"
  pIC50: "< 8.60"

Query: # get_value(readout= pIC50, system= DPP1 in HL-60 cells (Homo sapiens, UniProt P53634)) for CN1CCN(S(=O)(=O)c2ccc(-c3ccc(C[C@@H](C#N)NC(=O)[C@@H]4CNCCCO4)c(F)c3)cc2)CC1 [Compound 21]
Response: < 8.60

Query: Report pIC50 for N#C[C@H](Cc1ccc(-c2ccc3c(c2)C2(CN(C4COC4)C2)OC3=O)cc1)NC(=O)[C@@H]1CNCCCO1 [Compound 27] tested on DPP1 in HL-60 cells (Homo sapiens, UniProt P53634).
Response: < 8.60

Query: Lab note: need pIC50 for CO[C@@H]1CCNC[C@@H](C(=O)N[C@H](C#N)Cc2ccc(-c3cc4c(C)nc(C)cn4c3)cc2F)OC1 [Compound A47] on DPP1 in HL-60 cells (Homo sapiens, UniProt P53634), anyone have it?
Response: 8.60 to 9.00

src = patent US20260008760A1
